Task for the reader: assign each of the following compounds its reported IC50.
Target: EGFR L858R/T790M/C797S (Homo sapiens, UniProt P00533, C797S/L858R/T790M)
Sequence (P00533 25-1210 T790M/C797S/L858R): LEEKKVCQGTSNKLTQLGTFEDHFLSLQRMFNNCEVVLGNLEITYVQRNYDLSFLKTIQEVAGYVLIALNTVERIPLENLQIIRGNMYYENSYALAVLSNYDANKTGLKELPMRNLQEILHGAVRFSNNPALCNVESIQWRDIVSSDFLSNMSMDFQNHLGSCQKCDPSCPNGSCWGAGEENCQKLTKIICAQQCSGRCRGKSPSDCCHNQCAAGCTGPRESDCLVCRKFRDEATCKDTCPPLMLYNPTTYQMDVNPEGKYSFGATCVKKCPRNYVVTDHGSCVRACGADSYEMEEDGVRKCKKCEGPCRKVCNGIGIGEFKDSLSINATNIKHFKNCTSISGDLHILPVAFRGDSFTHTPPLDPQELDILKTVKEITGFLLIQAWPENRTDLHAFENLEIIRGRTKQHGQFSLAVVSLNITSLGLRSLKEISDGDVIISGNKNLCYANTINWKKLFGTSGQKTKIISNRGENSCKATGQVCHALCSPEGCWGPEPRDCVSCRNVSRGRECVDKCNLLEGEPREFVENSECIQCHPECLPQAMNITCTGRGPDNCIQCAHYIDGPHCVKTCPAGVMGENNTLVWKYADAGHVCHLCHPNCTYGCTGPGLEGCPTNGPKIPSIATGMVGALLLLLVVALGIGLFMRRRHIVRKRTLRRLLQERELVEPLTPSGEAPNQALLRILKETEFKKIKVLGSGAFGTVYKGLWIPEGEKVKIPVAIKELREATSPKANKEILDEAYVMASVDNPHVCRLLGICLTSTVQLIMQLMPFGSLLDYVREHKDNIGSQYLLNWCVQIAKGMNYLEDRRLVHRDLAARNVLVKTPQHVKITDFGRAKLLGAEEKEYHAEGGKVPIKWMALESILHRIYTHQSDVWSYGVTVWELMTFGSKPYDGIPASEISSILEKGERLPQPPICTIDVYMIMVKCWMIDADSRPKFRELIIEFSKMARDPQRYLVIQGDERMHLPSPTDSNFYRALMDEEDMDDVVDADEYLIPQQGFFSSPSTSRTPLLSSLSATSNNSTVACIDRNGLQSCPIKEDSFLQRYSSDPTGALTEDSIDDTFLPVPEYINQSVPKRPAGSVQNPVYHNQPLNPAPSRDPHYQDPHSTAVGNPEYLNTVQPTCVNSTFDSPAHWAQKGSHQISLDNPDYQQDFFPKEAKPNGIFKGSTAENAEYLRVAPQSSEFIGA
Experiment: Biochemical EGFR kinase inhibition assay (Lance Ultra TR-FRET), triple mutant L858R/T790M/C797S
Details: Km ATP; read-out: IC50 L858R/T790M/C797S (nM), Km ATP

Example results:
Compound	Property	Recorded Value
CC1(CO)CCN(c2cc(Nc3ccnc(-c4cnn(S(=O)(=O)C5CC5)c4)n3)ncc2C#CC2(O)COC2)CC1	IC50	0.1 nM
CN1CCN(Cc2ccc(C#Cc3cnc(Nc4ccnc(-c5cnn(S(=O)(=O)C6CC6)c5)n4)cc3N3CCC4(CCO4)CC3)cc2)CC1	IC50	0.1 nM

Dear colleague, could you send me IC50 for each of the items below? Thanks.
1. CN1CCN(Cc2ccc(C#Cc3cnc(Nc4ccnc(-c5cnn(S(=O)(=O)C6CC6)c5)n4)cc3N[C@H]3CC[C@@H](CO)CC3)cc2)CC1
2. O=S(=O)(C1CC1)n1cc(-c2nccc(Nc3cc(N[C@H]4CCC[C@H](O)C4)c(C#Cc4cnn(CC(F)(F)F)c4)cn3)n2)cn1
3. CC1(CO)CCN(c2cc(Nc3ccnc(-c4cnn(S(=O)(=O)C5CC5)c4)n3)ncc2C#CC2CCS(=O)(=O)C2)CC1 (stereo not shown)
4. CC1(CO)CCN(c2cc(Nc3ccnc(-c4cnn(S(=O)(=O)C5CC5)c4)n3)ncc2C#CC2CCCO2)CC1 (stereo not shown)

1. 0.3 nM
2. 0.9 nM
3. 0.1 nM
4. 0.1 nM

----------
Molecular target: EGFR Del19/T790M/C797S (Homo sapiens, UniProt P00533, C797S/DEL746-750/T790M)
Sequence (P00533 with tags, fused parts or gaps DEL746-750/T790M/C797S): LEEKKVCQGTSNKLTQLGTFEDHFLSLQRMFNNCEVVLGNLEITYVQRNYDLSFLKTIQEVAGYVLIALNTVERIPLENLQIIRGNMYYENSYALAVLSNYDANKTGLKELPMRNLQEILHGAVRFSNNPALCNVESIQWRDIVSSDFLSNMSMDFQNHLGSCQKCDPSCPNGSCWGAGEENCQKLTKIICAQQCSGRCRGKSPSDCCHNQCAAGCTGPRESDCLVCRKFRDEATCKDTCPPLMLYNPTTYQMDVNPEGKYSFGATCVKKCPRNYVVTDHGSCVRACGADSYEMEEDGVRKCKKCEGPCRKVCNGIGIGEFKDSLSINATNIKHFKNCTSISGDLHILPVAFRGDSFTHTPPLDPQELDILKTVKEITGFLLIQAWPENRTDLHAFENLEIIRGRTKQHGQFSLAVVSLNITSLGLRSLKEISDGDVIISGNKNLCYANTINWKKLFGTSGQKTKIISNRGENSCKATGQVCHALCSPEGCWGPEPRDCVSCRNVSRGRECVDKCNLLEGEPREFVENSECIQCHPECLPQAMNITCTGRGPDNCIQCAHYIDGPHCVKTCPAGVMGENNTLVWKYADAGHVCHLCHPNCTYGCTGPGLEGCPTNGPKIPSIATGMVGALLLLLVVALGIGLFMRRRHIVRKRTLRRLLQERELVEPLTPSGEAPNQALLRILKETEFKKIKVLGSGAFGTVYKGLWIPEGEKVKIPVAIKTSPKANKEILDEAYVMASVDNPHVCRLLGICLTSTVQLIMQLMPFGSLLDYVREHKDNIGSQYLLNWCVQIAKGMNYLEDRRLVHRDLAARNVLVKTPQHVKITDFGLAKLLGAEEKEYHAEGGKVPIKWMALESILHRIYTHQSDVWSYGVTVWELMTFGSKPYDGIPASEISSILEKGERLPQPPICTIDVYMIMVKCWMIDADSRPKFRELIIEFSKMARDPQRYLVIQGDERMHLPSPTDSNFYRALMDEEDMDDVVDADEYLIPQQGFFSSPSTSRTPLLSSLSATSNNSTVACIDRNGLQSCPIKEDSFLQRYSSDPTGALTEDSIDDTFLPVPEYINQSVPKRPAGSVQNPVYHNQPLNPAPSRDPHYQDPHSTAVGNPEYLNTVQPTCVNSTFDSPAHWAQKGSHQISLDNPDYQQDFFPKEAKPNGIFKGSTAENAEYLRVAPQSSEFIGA
Assay: Biochemical EGFR kinase inhibition assay (Lance Ultra TR-FRET), triple mutant del19/T790M/C797S
Settings: Km ATP; read-out: IC50 Del19/T790M/C797S (nM), Km ATP
Task for the reader: assign each of the following compounds its reported IC50.
Answers are plain numbers, in nM.

Example results:
Compound	IC50 [nM]
CS(=O)(=O)N1CCC(C#Cc2cnc(Nc3ccnc(-c4cnn(S(=O)(=O)C5CC5)c4)n3)cc2NC2CCC(CO)CC2)C1 (stereo not drawn) [Example 397]	1.5
CN1CCN(Cc2ccc(C#Cc3cnc(Nc4ccnc(-c5cnn(S(=O)(=O)C6CC6)c5)n4)cc3N3CCC4(CCO4)CC3)cc2)CC1 [Example 370]	0.3
CC1OCCC1C#Cc1cnc(Nc2ccnc(-c3cnn(S(=O)(=O)C4CC4)c3)n2)cc1N1CCC(C)(O)CC1 (stereo not drawn) [Example 432]	0.4

Dear colleague, could you send me IC50 for each of the items below? Thanks.
1. CC(=O)C1CCN(c2cc(Nc3ccnc(-c4cnn(S(=O)(=O)C5CC5)c4)n3)ncc2C#Cc2cnn(C(F)(F)F)c2)CC1 [Example 334]
2. O=S(=O)(C1CC1)N1CCC(C#Cc2cnc(Nc3ccnc(-c4cnn(S(=O)(=O)C5CC5)c4)n3)cc2NC2CCC(CO)CC2)C1 (stereo not drawn) [Example 393]
3. CN(C)CCC1CCCN(c2cc(Nc3ccnc(-c4cnn(S(=O)(=O)C5CC5)c4)n3)ncc2C#Cc2cnn(CCF)c2)C1 (stereo not drawn) [Example 386]

1: 5.6; 2: 0.5; 3: 0.1

----------
Target: EGFR Del19/C797S (Homo sapiens, UniProt P00533, C797S/DEL746-750)
Sequence (P00533 with tags, fused parts or gaps DEL746-750/C797S): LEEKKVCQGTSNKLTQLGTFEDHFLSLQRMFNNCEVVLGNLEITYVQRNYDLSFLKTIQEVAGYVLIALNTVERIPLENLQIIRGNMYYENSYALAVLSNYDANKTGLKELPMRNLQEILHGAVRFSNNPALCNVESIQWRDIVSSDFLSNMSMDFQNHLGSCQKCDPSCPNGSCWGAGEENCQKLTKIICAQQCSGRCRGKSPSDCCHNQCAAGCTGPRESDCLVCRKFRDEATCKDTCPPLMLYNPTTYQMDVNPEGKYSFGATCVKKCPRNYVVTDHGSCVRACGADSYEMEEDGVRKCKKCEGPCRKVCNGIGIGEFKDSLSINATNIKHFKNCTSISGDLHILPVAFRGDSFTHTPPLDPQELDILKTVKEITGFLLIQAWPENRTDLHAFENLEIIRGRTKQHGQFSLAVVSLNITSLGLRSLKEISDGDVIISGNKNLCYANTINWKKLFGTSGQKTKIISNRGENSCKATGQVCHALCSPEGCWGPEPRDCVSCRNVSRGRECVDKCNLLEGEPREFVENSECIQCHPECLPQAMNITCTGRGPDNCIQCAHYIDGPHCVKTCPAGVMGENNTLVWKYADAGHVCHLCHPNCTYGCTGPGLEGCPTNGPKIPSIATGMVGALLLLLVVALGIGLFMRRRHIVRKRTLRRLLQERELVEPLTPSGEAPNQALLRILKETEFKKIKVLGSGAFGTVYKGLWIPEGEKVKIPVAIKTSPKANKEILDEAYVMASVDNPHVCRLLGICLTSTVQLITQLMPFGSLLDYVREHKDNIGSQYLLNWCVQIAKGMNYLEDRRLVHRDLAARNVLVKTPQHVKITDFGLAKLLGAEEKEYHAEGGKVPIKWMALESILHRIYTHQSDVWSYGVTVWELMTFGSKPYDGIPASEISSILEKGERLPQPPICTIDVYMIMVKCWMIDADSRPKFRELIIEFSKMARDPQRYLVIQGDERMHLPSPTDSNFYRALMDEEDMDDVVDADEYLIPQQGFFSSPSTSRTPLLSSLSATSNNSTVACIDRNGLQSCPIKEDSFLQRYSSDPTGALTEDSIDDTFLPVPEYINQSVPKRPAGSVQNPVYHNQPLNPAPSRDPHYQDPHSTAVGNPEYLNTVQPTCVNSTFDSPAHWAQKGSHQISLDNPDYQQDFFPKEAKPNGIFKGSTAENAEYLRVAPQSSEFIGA
Assay: Biochemical EGFR kinase inhibition assay (Lance Ultra TR-FRET), double mutant del19/C797S
Conditions: Km ATP; read-out: IC50 Del19/C797S (nM), Km ATP
Property: IC50 (nM)
Give bare numbers, in nM.

Molecule	Unit Abbreviation	IC50
CN(C)CC1(C)CCN(c2cc(Nc3ccnc(-c4cnn(S(=O)(=O)C5CC5)c4)n3)ncc2C#CC2(C)CC2)CC1 [Example 406]	nM	3.3
O=S(=O)(C1CC1)n1cc(-c2nccc(Nc3cc(N[C@H]4CC[C@@H](NCCF)CC4)c(C#Cc4cnn(CC(F)(F)F)c4)cn3)n2)cn1 [Example 345]	nM	11
CS(=O)(=O)N1CCC(C#Cc2cnc(Nc3ccnc(-c4cnn(S(=O)(=O)C5CC5)c4)n3)cc2NCC2CCC(O)CC2)C1 (stereo not shown) [Example 398]	nM	16.6
CN(C)CCC1CCN(c2cc(Nc3ccnc(-c4cnn(S(=O)(=O)C5CC5)c4)n3)ncc2C#CC2CCO[C@H]2C(F)(F)F)CC1 (stereo partly shown) [Example 419]	nM	3.9
O=S(=O)(C1CC1)N1CCC(C#Cc2cnc(Nc3ccnc(-c4cnn(S(=O)(=O)C5CC5)c4)n3)cc2NC2CCC(O)CC2)C1 (stereo not shown) [Example 394]	nM	7.5

Dear colleague, could you send me IC50 for each of the items below? Thanks.
1. O=S(=O)(C1CC1)n1cc(-c2nccc(Nc3cc(N4[C@@H]5CC[C@H]4C[C@H](CO)C5)c(C#Cc4cnn(C(F)(F)F)c4)cn3)n2)cn1 [Example 332]
2. CN1CCN(Cc2ccc(C#Cc3cnc(Nc4ccnc(-c5cnn(S(=O)(=O)C6CC6)c5)n4)cc3N[C@H]3CC[C@@H](CO)CC3)cc2)CC1 [Example 360]

1: 800; 2: 2.3

Dear colleague, could you send me IC50 for each of the items below? Thanks.
1. O=S(=O)(C1CC1)n1cc(-c2nccc(Nc3cc(N[C@H]4CC[C@@H](CO)CC4)c(C#Cc4cnn(CCF)c4)cn3)n2)cn1 [Example 379]
2. O=S(=O)(C1CC1)n1cc(-c2nccc(Nc3cc(NC4CCC(O)CC4)c(C#CC4(O)CCOC4)cn3)n2)cn1 (stereo not shown) [Example 356]
3. O=S(=O)(C1CC1)n1cc(-c2nccc(Nc3cc(NC[C@H]4CC[C@H](CO)CC4)c(C#Cc4cnn(CCF)c4)cn3)n2)cn1 [Example 381]
4. O=S(=O)(C1CC1)n1cc(-c2nccc(Nc3cc(NC4CCC(CO)CC4)c(C#CC4CCCO4)cn3)n2)cn1 (stereo not shown) [Example 374]

1.9
0.6
33.3
1.3

Dear colleague, could you send me IC50 for each of the items below? Thanks.
1. CC1OCCC1C#Cc1cnc(Nc2ccnc(-c3cnn(S(=O)(=O)C4CC4)c3)n2)cc1NC1CCC(O)CC1 (stereo not shown) [Example 433]
2. O=S(=O)(C1CC1)N1CCC(C#Cc2cnc(Nc3ccnc(-c4cnn(S(=O)(=O)C5CC5)c4)n3)cc2NC2CCC(CO)CC2)C1 (stereo not shown) [Example 393]

1. 1
2. 7.3
